# melting point values compiled below

# molecule, melting point
data = [
    ("Cc1oc(-c2ccc(C(F)(F)F)cc2)cc1CCOc1cccc(CC(=O)O)c1 [Example 6(83)]", "92 to 94 °C"),
    ("Cc1oc(-c2ccc(C(F)(F)F)cc2)cc1COc1ccc2oc(CCC(=O)O)cc2c1 [Example 6(89)]", "156 to 157 °C"),
    ("Cc1cc(-c2ccc(C(F)(F)F)cc2)oc1COc1ccc(CC(C)(C)C(=O)O)cc1 [Example 20(1)]", "124 to 126 °C"),
    ("CCCCc1oc(-c2ccc(C(F)(F)F)cc2)cc1COc1ccc(CCC(=O)O)c(C)c1 [Example 5(11)]", "118 to 119 °C"),
    ("Cc1oc(-c2ccc(C(F)(F)F)cc2)cc1CCCCOc1ccc(SC(C)(C)C(=O)O)cc1 [Example 6(106)]", "155 to 156 °C"),
]

Input: What value of melting point has been reported for the following molecule? Cc1oc(-c2ccc(C(F)(F)F)cc2)cc1COc1cccc(-c2cccc(C(=O)O)c2)c1 [Example 6(125)]
Output: 178 to 179 °C

Input: Would you mind doing Cc1oc(-c2ccc(C(F)(F)F)cc2)cc1COc1ccc(F)c(CSC(C)(C)C(=O)O)c1 [Example 6(95)] as well?
Output: 131 to 132 °C

Input: Would you mind doing Cc1oc(-c2ccc(C(F)(F)F)cc2)cc1CCc1ncc(CC(=O)O)s1 [Example 13(1)] as well?
Output: 143 to 145 °C
